Target: Recombinant human cathepsin S (CatS) (Homo sapiens)
Sequence (P25774 115-331): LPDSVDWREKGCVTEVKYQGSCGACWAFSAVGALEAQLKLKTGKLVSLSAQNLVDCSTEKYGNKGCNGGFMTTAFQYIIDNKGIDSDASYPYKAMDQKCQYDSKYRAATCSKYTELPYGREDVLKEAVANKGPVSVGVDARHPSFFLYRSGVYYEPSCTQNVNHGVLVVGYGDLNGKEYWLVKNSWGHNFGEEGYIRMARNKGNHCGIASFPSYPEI
Test: Recombinant human cathepsin S (CatS) inhibition assay, fluorogenic substrate Z-Valine-Valine-Arginine-AMC
Conditions: CatS IC50
Exercise: for every item that follows, state its recorded pIC50.
Give bare numbers, as −log10 of the molar value.

# input Please give the measured pIC50 for this molecule: `CS(=O)(=O)N1CCc2c(c(-c3ccc(Cl)c(C#Cc4c[nH]cn4)c3)nn2CCCN2CCOCC2)C1`
# output 5.51

# input Next molecule: `CS(=O)(=O)N1CCc2c(c(-c3ccc(Cl)c(C#Cc4ccc(NCC#N)cc4)c3)nn2CCCN2CCOCC2)C1`
# output 6.14

# input Next molecule: `CS(=O)(=O)N1CCc2c(c(-c3ccc(Cl)c(C#Cc4ccc(CNCc5ccc(Cl)cc5)cc4)c3)nn2CCCN2CC[C@H](O)C2)C1`
# output 6.96

# input Next molecule: `CS(=O)(=O)N1CCc2c(c(-c3ccc(Cl)c(C#Cc4ccc(CN[C@@H]5Cc6ccccc6[C@@H]5O)cc4)c3)nn2CCCN2CCN(c3ccccn3)CC2)C1`
# output 7.70

# input Next molecule: `CS(=O)(=O)N1CCc2c(c(-c3ccc(Cl)c(C#Cc4ccc5c(c4)CN[C@@H](C(=O)N4CCOCC4)C5)c3)nn2CCCN2CCOCC2)C1`
# output 6.02

# input Next molecule: `CS(=O)(=O)N1CCc2c(c(-c3ccc(Cl)c(C#Cc4cccc(Cl)c4)c3)nn2CCCN2CCOCC2)C1`
# output 6.15

Below are 7 molecules. Give each one its pIC50.
1. CC(=O)NC1CCN(CCCn2nc(-c3ccc(Cl)c(C#Cc4ccc(CNCc5ccc(Cl)cc5)cc4)c3)c3c2CCN(C(N)=O)C3)CC1
2. C[C@H]1COCCN1CCCn1nc(-c2ccc(Cl)c(C#Cc3ccc4c(c3)CN(C(=O)OC(C)(C)C)CC4)c2)c2c1CCN(S(C)(=O)=O)C2
3. NC(=O)C(=O)N1CCc2c(c(-c3ccc(Cl)c(C#Cc4ccc(Cl)c(CNC5CCCC5)c4)c3)nn2CCCN2CCCCC2)C1
4. C[C@H]1COCCN1CCCn1nc(-c2ccc(Cl)c(C#Cc3ccc(CNCc4ccc(Cl)cc4)cc3)c2)c2c1CCN(S(C)(=O)=O)C2
5. CN1CCN(CCCn2nc(-c3ccc(Cl)c(C#Cc4ccc(CNCc5ccc(Cl)cc5)cc4)c3)c3c2CCN(S(C)(=O)=O)C3)CC1
6. CCN(CC)Cc1ccc(C#Cc2cc(-c3nn(CCCN4CCOCC4)c4c3CN(S(C)(=O)=O)CC4)ccc2Cl)cc1
7. CC(C)CNCc1ccc(C#Cc2cc(-c3nn(CCCN4CCOCC4)c4c3CN(S(C)(=O)=O)CC4)ccc2Cl)cc1

# output
7.70
6.59
8.00
7.10
6.44
5.57
5.94

---

Biological target: Recombinant human cathepsin S (CatS) (Homo sapiens)
Assay: Recombinant human cathepsin S (CatS) inhibition assay, fluorogenic substrate Z-Valine-Valine-Arginine-AMC;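 also: Baculovirus-expressed CatS in pH 5.0 sodium acetate buffer with DTT and NaCl, fluorescence read each minute over 20 min, inhibition derived from rate slope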
Conditions: CatS IC50
Exercise: for every item that follows, state its recorded pIC50.
Answers are plain numbers, as −log10 of the molar value.

# input Please give the measured pIC50 for this compound: `CS(=O)(=O)N1CCc2c(c(-c3ccc(Cl)c(C#Cc4cccnc4)c3)nn2C[C@@H](O)CN2CCC(C3CCNCC3)CC2)C1`
# output 6.74

Below are 5 compounds. Give each one its pIC50.
1. CS(=O)(=O)N1CCc2c(c(-c3ccc(Cl)c(C#Cc4ccc(CNCC(F)(F)F)cc4)c3)nn2CCCN2CCOCC2)C1
2. Cc1ccccc1CNCc1ccc(C#Cc2cc(-c3nn(CCCN4CCSCC4)c4c3CN(C(N)=O)CC4)ccc2Cl)cc1
3. CS(=O)(=O)N1CCc2c(c(-c3ccc(Cl)c(C#Cc4ccccc4Cl)c3)nn2CCCN2CCOCC2)C1
4. CS(=O)(=O)N1CCc2c(c(-c3ccc(Cl)c(C#Cc4ccc(CNCc5ccc(Cl)cc5)cc4)c3)nn2C[C@H](O)CN2CCSCC2)C1
5. C=CCNCc1ccc(C#Cc2cc(-c3nn(CCCN4CCOCC4)c4c3CN(S(C)(=O)=O)CC4)ccc2Cl)cc1

# output
1. 6.41
2. 7.05
3. 6.14
4. 6.92
5. 6.26

# input Please give the measured pIC50 for this compound: `CS(=O)(=O)N1CCc2c(c(-c3ccc(Cl)c(C#Cc4ccc(CNCC(F)(F)F)cc4)c3)nn2CCCN2CCC(N3CCCC3=O)CC2)C1`
# output 7.00
